tested on: MIA PaCa-2 cells; test: 'Wound healing' migration assay, MIA PaCa-2; format: cell-based, human; conditions: MIA PaCa-2
observed property: inhibition of migration, hypoxia compared with normoxia

>>> result("COc1ccc(C2CC(c3cccs3)=NN2C2=NC(=O)/C(=C3/C(=O)Nc4ccc(I)cc43)S2)cc1 (stereo not shown)")
"less than under normoxia"
>>> result("COc1ccc(C2CC(c3ccc4ccccc4c3)=NN2C2=NC(=O)/C(=C3/C(=O)Nc4ccc(I)cc43)S2)cc1 (stereo not shown)")
"less than under normoxia"

###

system: PANC-1 cells; assay: MTT cell viability assay, PANC-1; assay type: cell-based, human; conditions: Homo sapiens, PANC-1, 72 h, PANC-1, hypoxia (100 µM CoCl2), 72 h, MTT
observed property: EC50 (nM)
One number for each entry, in nM.

>>> recorded_number("COc1ccc(C2CC(c3ccc4ccccc4c3)=NN2C2=NC(=O)/C(=C3/C(=O)Nc4ccc(Cl)cc43)S2)cc1 (centres unmarked)")
80

[in] Query: EC50; subject: CCN(CC)CCNC(=O)c1c(C)[nH]c(/C=C2\C(=O)Nc3ccc(F)cc32)c1C [sunitinib, Sunitinib malate]
[out] 3730
